For each entry below, report its Relative binding affinity of peptide to HLA-DR molecules, DR1 value.
target: DRB1*0101 (DR1) (Homo sapiens, UniProt P01903+P01911, A100R/D57E/F55L/F60I/F76Y/I96L/L162R/M171V/P40L/Q125E/R42F/V115G/Y59C); assay type: binding
Respond using a number only.

Item: EIMKHIVKIEVKGEEAVKKE | Relative binding affinity of peptide to HLA-DR molecules, DR1: 243

# Relative binding affinity of peptide to HLA-DR molecules, DR1 of YGKDALLHEHYVYAKEGYEP = 199

Quick note, Relative binding affinity of peptide to HLA-DR molecules, DR1 for NKALGLPKYTKLITFNVHNR landed at 0

Query PESRSILLHGPSKGVELRND yields Relative binding affinity of peptide to HLA-DR molecules, DR1 of 7

Looking up SKKFIDIFKEEGSNLTSYGR , I see its Relative binding affinity of peptide to HLA-DR molecules, DR1 listed as 4

Relative binding affinity of peptide to HLA-DR molecules, DR1 measured on YLVDGNGRFVFTDITLPNIA = 123

Recorded Relative binding affinity of peptide to HLA-DR molecules, DR1 (sequence SDVLEMYKAIGGKIYIVDGD ): 5

Form: sequence = QNSNEVQEVFAKAFAYYIEP ; Relative binding affinity of peptide to HLA-DR molecules, DR1 = 0.1

The reported Relative binding affinity of peptide to HLA-DR molecules, DR1 of the sequence YVYAKEGYEPVLVIQSSEDY was 771

For LENGKLILQRNIGLEIKDVQI the sequence record lists Relative binding affinity of peptide to HLA-DR molecules, DR1 as 0

Item: VLVIQSSEDYVENTEKALNV | Relative binding affinity of peptide to HLA-DR molecules, DR1: 1702

Briefly, Relative binding affinity of peptide to HLA-DR molecules, DR1 measured for LLFTNQLKEHPTDFSVEFLE : 909

The reported value for VENTEKALNVYYEIGKILSR in terms of Relative binding affinity of peptide to HLA-DR molecules, DR1 is 1

Query HQSIGSTLYNKIYLYENMNI yields Relative binding affinity of peptide to HLA-DR molecules, DR1 of 115

KIYLYENMNINNLTATLGAD yielded Relative binding affinity of peptide to HLA-DR molecules, DR1 of 0.2

So for PEAFNYMDKFNEQEINLSLE , the logged Relative binding affinity of peptide to HLA-DR molecules, DR1 turned out to be 2156

Data origin: patent US20170058005A1
